A collection of binders and their measured Classification
# ASSAY_TARGET: T1, GST-AF6 PDZ domain 1 (Homo sapiens (Human)), P55196
# T1 chain: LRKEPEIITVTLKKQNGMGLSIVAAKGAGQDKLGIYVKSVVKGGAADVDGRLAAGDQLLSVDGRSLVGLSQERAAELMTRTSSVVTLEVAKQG
# TEST_NAME: G' assay; also: key of the grades not given here
Field format: number, assumed A450 class, no unit text.

Some solved entries appear below for comparison.
| BINDER | Classification / A450 class |
| --- | --- |
| SSPDSSYQGKGFVMSRAMYV (modifications not checked) [Nectin 2] | 2 |
| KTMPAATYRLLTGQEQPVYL (modifications not checked) [MINT-3] | 1 |

Turning now to a further binder:
The binder listed as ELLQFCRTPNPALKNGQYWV (modifications not checked) [CSPG4 (chondroitin sulfae proteoglycan 4, melanoma-associated)] shows Classification equal to 5
